- procedure.details: Selectivity determined by Ki of alpha 2 receptor / Ki of PNMT
readout.kind: Selectivity

The cases that follow already have their Selectivity on record.
molecule: FC(F)(F)C1Cc2ccc(Br)cc2CN1 (centres undefined)
Selectivity: > 1900

molecule: N#Cc1ccc2c(c1)CNC(C(F)(F)F)C2 (centres undefined)
Selectivity: 220

molecule: O=[N+]([O-])c1ccc2c(c1)CNC(C(F)(F)F)C2 (centres undefined)
Selectivity: 700

molecule: COCC1Cc2ccccc2CN1 (centres undefined)
Selectivity: 0.3

molecule: NS(=O)(=O)c1ccc2c(c1)CNC(CO)C2 (centres undefined)
Selectivity: 4100

Using the record for CCC1Cc2ccccc2CN1 (centres undefined) , report its Selectivity.
0.028

Using the record for OCC1Cc2ccccc2CN1 (centres undefined) , report its Selectivity.
6

Using the record for Clc1ccc2c(c1Cl)CNCC2 , report its Selectivity.
0.095

Using the record for FC(F)(F)C1Cc2ccccc2CN1 (centres undefined) , report its Selectivity.
27
